TARGET ENTITY: Muscarinic acetylcholine receptor M1 (Homo sapiens)
SETTINGS: Compound concentration 10 µM
Description: PDSP Primary Binding target: CHRM1 - Compounds are tested at 10 uM concentration, plate are incubated at room temperature in the dark for 90 minutes. Reaction are stopped by vacuum filtration onto 0.3% polyethyleneimine soaked filter mats using Filtermate harvester. Scintilation cocktail is then melted onto microwave-dried filters on a hot plate and the radio activity is counted in Microbia counter.
Quick list: inhibition per entry.
Report the figure in % without appending any unit label.

MOLECULE	TARGET ENTITY	ASSAY RESULT
OC[C@H]1O[C@@H](n2cnc3c(NC4CCCC4)ncnc32)[C@H](O)[C@@H]1O	Muscarinic acetylcholine receptor M1 (Homo sapiens)	15.4
CC1CCN(CC[C@H]2CCCN2S(=O)(=O)c2cccc(O)c2)CC1	Muscarinic acetylcholine receptor M1 (Homo sapiens)	-8.14
CC(C)NC(=O)c1ccc(C#Cc2ccncc2)cn1	Muscarinic acetylcholine receptor M1 (Homo sapiens)	-0.6
O=C(Nc1ccc(Cl)cc1)Nc1cccc(-c2cccc(N3CCCC3)n2)c1	Muscarinic acetylcholine receptor M1 (Homo sapiens)	9.22

Proceeding to the next compound to report its inhibition.
# input For Muscarinic acetylcholine receptor M1 (Homo sapiens), provide inhibition of c1cc(CN2CCCNCCNCCCNCC2)ccc1CN1CCCNCCNCCCNCC1 please.
# output 62.3

---

TARGET ENTITY: Alpha-2C adrenergic receptor (Homo sapiens) (UniProt P18825)
Sequence (P18825 whole entry): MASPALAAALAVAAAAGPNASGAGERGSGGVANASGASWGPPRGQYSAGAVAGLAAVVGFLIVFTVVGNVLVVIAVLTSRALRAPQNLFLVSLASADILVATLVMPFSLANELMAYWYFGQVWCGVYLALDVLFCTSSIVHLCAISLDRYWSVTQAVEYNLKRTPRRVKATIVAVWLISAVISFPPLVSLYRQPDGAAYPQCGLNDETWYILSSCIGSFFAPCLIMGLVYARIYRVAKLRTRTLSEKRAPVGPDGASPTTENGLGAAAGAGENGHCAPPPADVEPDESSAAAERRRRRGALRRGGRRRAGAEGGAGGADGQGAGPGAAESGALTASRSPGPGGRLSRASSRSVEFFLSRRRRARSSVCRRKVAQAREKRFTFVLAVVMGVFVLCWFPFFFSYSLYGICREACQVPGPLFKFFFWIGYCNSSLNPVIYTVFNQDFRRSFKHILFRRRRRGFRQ
SETTINGS: Compound concentration 10 µM
Description: PDSP Primary Binding target: ADRA2C - Compounds are tested at 10 uM concentration, plate are incubated at room temperature in the dark for 90 minutes. Reaction are stopped by vacuum filtration onto 0.3% polyethyleneimine soaked filter mats using Filtermate harvester. Scintilation cocktail is then melted onto microwave-dried filters on a hot plate and the radio activity is counted in Microbia counter.
Each entry below lists one item and its recorded inhibition value.
The reply should be a number in %, with the unit left off.

# input Record request: inhibition value, item CCCSc1nc(N[C@@H]2C[C@H]2c2ccc(F)c(F)c2)c2nnn([C@@H]3C[C@H](OCCO)[C@@H](O)[C@H]3O)c2n1
# output 15.4

# input Need inhibition of CCc1nn(CCCN2CCN(c3cccc(Cl)c3)CC2)c(=O)n1CCOc1ccccc1 , thanks.
# output 95.3

# input Requested read-out: inhibition. Entry: N#Cc1c[nH]c2c(C(=O)N3CCN(CCc4ccc(F)cc4)CC3)cccc12
# output 38.2

# input What value of measured inhibition is listed for Cc1cccc(NC(=O)N[C@@H]2N=C(c3ccccc3)c3ccccc3N(C)C2=O)c1 ?
# output 12.3

# input Sample CC(C)(C(=O)O)c1ccc(C(O)CCCN2CCC(C(O)(c3ccccc3)c3ccccc3)CC2)cc1 (centres undefined) — what was its inhibition?
# output -7.6

---

TARGET ENTITY: 5-hydroxytryptamine receptor 2B (Homo sapiens)
SETTINGS: Compound concentration 10 µM
Description: PDSP Primary Binding target: HTR2B - Compounds are tested at 10 uM concentration, plate are incubated at room temperature in the dark for 90 minutes. Reaction are stopped by vacuum filtration onto 0.3% polyethyleneimine soaked filter mats using Filtermate harvester. Scintilation cocktail is then melted onto microwave-dried filters on a hot plate and the radio activity is counted in Microbia counter.
Lab note: compare inhibition against 30%. Equal or greater, write true (1). Smaller, write false (0).

Before answering, review these 4 worked examples.
>>> print(df.to_string())
                                   compound  assigned_label
0  C[C@H](CO)Nc1nc(SCc2cccc(Cl)c2F)nc2[nH]c(=O)sc12       false (0)
1  Cc1ccc(O)c([C@H](CCN(C(C)C)C(C)C)c2ccccc2)c1        true (1)
2  O=C(O)c1cc(-c2ccc(C3CCNCC3)cc2)c2ccc(-c3ccc(C(F)(F)F)cc3)cc2c1       false (0)
3  COc1ccc(/C=C/CCCCOc2ccc(C(=O)c3cccc(C(=O)O)c3)cc2CCC(=O)O)cc1       false (0)

# input hey, is inhibition for this one >= 30%? CCc1cc2c(c(CC)n1)CCC(=O)N2Cc1ccc(-c2ccccc2-c2nnn[nH]2)cc1
# output false (0)

---

TARGET ENTITY: 5-hydroxytryptamine receptor 1E (Homo sapiens)
SETTINGS: Compound concentration 10 µM
Description: PDSP Primary Binding target: HTR1E - Compounds are tested at 10 uM concentration, plate are incubated at room temperature in the dark for 90 minutes. Reaction are stopped by vacuum filtration onto 0.3% polyethyleneimine soaked filter mats using Filtermate harvester. Scintilation cocktail is then melted onto microwave-dried filters on a hot plate and the radio activity is counted in Microbia counter.
Record 1 (yes) whenever inhibition is at 10% or higher; record 0 (no) when lower.

The following molecules have reported results that may help.
>>> print(df.to_string())
                                   molecule  assigned_label
0  O=C(O)c1cc(-c2ccc(C3CCNCC3)cc2)c2ccc(-c3ccc(C(F)(F)F)cc3)cc2c1          0 (no)
1  COc1ccnc(N2CCC3(CCCN(Cc4c[nH]c5ccccc45)C3=O)CC2)n1          0 (no)
2  COC(=O)[C@H]1[C@H]2C[C@H]3c4[nH]c5ccccc5c4CCN3C[C@H]2CC[C@@H]1O         1 (yes)
3  CCc1nn2c(C)cc(C)nc2c1Cc1ccc(-c2nnc(C3CCNCC3)o2)cc1         1 (yes)
4  Cc1ccc2c(c1)c1c(n2CCc2ccc(C)nc2)CCN(C)C1         1 (yes)

# input Please tell me: is the molecule CCCSc1nc(N[C@@H]2C[C@H]2c2ccc(F)c(F)c2)c2nnn([C@@H]3C[C@H](OCCO)[C@@H](O)[C@H]3O)c2n1 at or over 10% in terms of inhibition?
# output 0 (no)

# input Please tell me: is the molecule C[C@@H](NCCCc1cccc(C(F)(F)F)c1)c1cccc2ccccc12 at or over 10% in terms of inhibition?
# output 1 (yes)

# input Given CNC[C@H](O)c1cccc(O)c1 , state whether its inhibition is at least 10%.
# output 1 (yes)

# input Dear colleague, could you confirm whether N[C@H](C(=O)O)c1ccc(C(=O)O)c(C(=O)O)c1 has inhibition at or above 10%?
# output 0 (no)

# input Does the reported inhibition for Cc1nc(-c2ccc(-c3ccc(C(=O)N4CCc5cc6c(cc54)C4(CCN(C)CC4)CO6)cc3)c(C)c2)no1 fall at or above the 10% mark?
# output 0 (no)

---

A collection of compounds and their measured inhibition
TARGET ENTITY: Sodium-dependent noradrenaline transporter (Homo sapiens) (UniProt P23975)
Sequence (P23975 whole entry): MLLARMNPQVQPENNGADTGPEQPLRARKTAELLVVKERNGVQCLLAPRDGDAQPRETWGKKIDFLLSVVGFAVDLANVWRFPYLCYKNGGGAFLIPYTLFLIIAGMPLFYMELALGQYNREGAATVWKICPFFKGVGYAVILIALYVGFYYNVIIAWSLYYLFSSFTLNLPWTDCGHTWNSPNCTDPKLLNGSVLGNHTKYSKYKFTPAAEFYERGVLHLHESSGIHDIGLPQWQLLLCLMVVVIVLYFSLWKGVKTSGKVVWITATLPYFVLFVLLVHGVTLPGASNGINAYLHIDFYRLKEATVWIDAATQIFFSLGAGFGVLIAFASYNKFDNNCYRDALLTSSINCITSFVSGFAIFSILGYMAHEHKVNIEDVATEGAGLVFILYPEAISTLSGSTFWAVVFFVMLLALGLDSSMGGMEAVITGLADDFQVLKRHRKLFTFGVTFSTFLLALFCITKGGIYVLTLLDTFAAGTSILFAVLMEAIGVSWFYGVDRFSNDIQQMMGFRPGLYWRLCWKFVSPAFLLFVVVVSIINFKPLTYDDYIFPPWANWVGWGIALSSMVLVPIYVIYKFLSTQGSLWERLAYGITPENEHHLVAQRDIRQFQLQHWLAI
SETTINGS: Compound concentration 10 µM
Description: PDSP Primary Binding target: SLC6A2 - Compounds are tested at 10 uM concentration, plate are incubated at room temperature in the dark for 90 minutes. Reaction are stopped by vacuum filtration onto 0.3% polyethyleneimine soaked filter mats using Filtermate harvester. Scintilation cocktail is then melted onto microwave-dried filters on a hot plate and the radio activity is counted in Microbia counter.
Hi! Could you send only the number? It should be in %, unit omitted.

In [3]: df
Out[3]:
                                   compound                             target_entity  assay_result
0  CCOC(=O)c1c(C)[nH]c2ccc3c(c12)CN1CCc2cc(OC)ccc2C1O3 (stereo unspecified)  Sodium-dependent noradrenaline transporter (Homo sapiens) (UniProt P23975)            51
1                       N=C(N)SCCc1c[nH]cn1  Sodium-dependent noradrenaline transporter (Homo sapiens) (UniProt P23975)          11.5
2  CN1C2CCC1CC(OC(c1ccc(F)cc1)c1ccc(F)cc1)C2 (stereo unspecified)  Sodium-dependent noradrenaline transporter (Homo sapiens) (UniProt P23975)           102
3       CCC(=O)NCC[C@@H]1CCc2ccc3c(c21)CCO3  Sodium-dependent noradrenaline transporter (Homo sapiens) (UniProt P23975)            18

# input Which inhibition value belongs to CCCCN1CCC(COC(=O)c2cc(Cl)c(N)c3c2OCCO3)CC1 ?
# output 42.9

# input Which value of inhibition has been reported for Cc1cccc([C@H](C)c2c[nH]cn2)c1C in the records?
# output 50.9

# input Report inhibition for O=C(Cc1ccc(Cl)c(Cl)c1)N1CCCC[C@H]1CN1CCCC1 please.
# output 23.7

---

Reported inhibition values for the following compounds.
TARGET ENTITY: Beta-1 adrenergic receptor (Homo sapiens) (UniProt P08588)
Sequence (P08588 whole entry, looked up): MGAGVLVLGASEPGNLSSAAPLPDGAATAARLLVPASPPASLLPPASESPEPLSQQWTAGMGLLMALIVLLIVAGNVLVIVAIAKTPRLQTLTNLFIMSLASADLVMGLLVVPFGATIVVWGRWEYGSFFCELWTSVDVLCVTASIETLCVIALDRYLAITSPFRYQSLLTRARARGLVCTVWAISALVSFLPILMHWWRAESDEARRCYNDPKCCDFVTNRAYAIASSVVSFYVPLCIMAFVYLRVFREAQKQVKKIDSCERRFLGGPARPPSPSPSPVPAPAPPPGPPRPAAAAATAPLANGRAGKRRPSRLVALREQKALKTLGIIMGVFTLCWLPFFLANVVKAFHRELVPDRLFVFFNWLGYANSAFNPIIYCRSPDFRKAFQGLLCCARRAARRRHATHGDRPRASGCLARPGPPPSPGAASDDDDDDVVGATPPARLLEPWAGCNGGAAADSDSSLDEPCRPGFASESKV
SETTINGS: Compound concentration 10 µM
Description: PDSP Primary Binding target: ADRB1 - Compounds are tested at 10 uM concentration, plate are incubated at room temperature in the dark for 90 minutes. Reaction are stopped by vacuum filtration onto 0.3% polyethyleneimine soaked filter mats using Filtermate harvester. Scintilation cocktail is then melted onto microwave-dried filters on a hot plate and the radio activity is counted in Microbia counter.
Express it in %; write the number only.

Examples from the recorded data:
In [3]: df
Out[3]:
                                   compound  measured_parameter  assay_result
0  CN(C)C(=O)C(CCN1CCC(O)(c2ccc(Cl)cc2)CC1)(c1ccccc1)c1ccccc1          inhibition          -4.2
1            Cc1cccc([C@H](C)c2c[nH]cn2)c1C          inhibition          3.18
2  C/C(=N\NC(=O)[C@@H]1C(=O)NC[C@H]1c1ccccc1)c1cccc(Br)c1          inhibition         -3.09
3  COc1ccc(/C=C/CCCCOc2ccc(C(=O)c3cccc(C(=O)O)c3)cc2CCC(=O)O)cc1          inhibition          49.6
4  COc1ccc(OC(F)(F)F)cc1CN[C@H]1CCCN[C@H]1c1ccccc1          inhibition          1.65

Below: the item to evaluate.
# input inhibition lookup needed for CCCCCCCCCCCCC/C=C/[C@@H](O)[C@@H](N)COP(=O)(O)O , thanks.
# output 0.96

---

TARGET ENTITY: 5-hydroxytryptamine receptor 5A (Homo sapiens) (UniProt P47898)
Sequence (P47898 whole entry): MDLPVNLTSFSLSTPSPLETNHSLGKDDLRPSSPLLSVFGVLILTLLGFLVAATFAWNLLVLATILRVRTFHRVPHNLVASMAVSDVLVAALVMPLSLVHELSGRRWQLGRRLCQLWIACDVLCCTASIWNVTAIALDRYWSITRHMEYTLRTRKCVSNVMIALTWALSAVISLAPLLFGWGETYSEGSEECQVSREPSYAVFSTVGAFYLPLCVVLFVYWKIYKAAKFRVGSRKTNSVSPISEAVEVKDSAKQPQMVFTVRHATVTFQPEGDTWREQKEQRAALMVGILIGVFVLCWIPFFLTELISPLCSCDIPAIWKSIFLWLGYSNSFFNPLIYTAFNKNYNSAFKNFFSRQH
SETTINGS: Compound concentration 10 µM
Description: PDSP Primary Binding target: HTR5A - Compounds are tested at 10 uM concentration, plate are incubated at room temperature in the dark for 90 minutes. Reaction are stopped by vacuum filtration onto 0.3% polyethyleneimine soaked filter mats using Filtermate harvester. Scintilation cocktail is then melted onto microwave-dried filters on a hot plate and the radio activity is counted in Microbia counter.
Mark 0 (no) for inhibition values under 20%, and 1 (yes) for everything at or above.

As a guide, the following entries are already answered.
COMPOUND	TARGET ENTITY	ASSIGNED LABEL
CCc1cc2c(c(CC)n1)CCC(=O)N2Cc1ccc(-c2ccccc2-c2nnn[nH]2)cc1	5-hydroxytryptamine receptor 5A (Homo sapiens) (UniProt P47898)	0 (no)
CCC(=O)NCC[C@@H]1CCc2ccc3c(c21)CCO3	5-hydroxytryptamine receptor 5A (Homo sapiens) (UniProt P47898)	1 (yes)
CC(C)[C@H](CO)Nc1nc(Nc2cccc(Cl)c2)c2ncn(C(C)C)c2n1	5-hydroxytryptamine receptor 5A (Homo sapiens) (UniProt P47898)	1 (yes)
CC(C)NCC(O)COc1cccc2ccccc12 (centres undefined)	5-hydroxytryptamine receptor 5A (Homo sapiens) (UniProt P47898)	0 (no)
CCc1nn2c(C)cc(C)nc2c1Cc1ccc(-c2nnc(C3CCNCC3)o2)cc1	5-hydroxytryptamine receptor 5A (Homo sapiens) (UniProt P47898)	0 (no)

# input Has Oc1ccc2c3c1O[C@H]1c4[nH]c5c(c4C[C@@]4(O)[C@@H](C2)N(CC2CC2)CC[C@]314)C[C@@]1(O)[C@H]2Cc3ccc(O)c4c3[C@@]1(CCN2CC1CC1)[C@H]5O4 a recorded inhibition greater than or equal to 20%?
# output 0 (no)

# input Reported inhibition at or above 20%? CCC[C@H](Oc1cc(C)c(-n2cc(C(F)(F)F)cn2)c(C)c1)c1ccc(C(=O)NCCC(=O)O)cc1
# output 0 (no)

# input For this compound, is measured inhibition 20% or higher? Cc1nn(C)c(C)c1-c1cccc2c1CC[C@H](N(C)C)C2
# output 1 (yes)

# input Threshold query (inhibition >= 20%) on CC[C@@H]1CN2C(=O)N(C)c3nc(-c4ccccc4)[nH]c3C2=N1
# output 0 (no)

# input State whether the measured inhibition reaches 20%, counting equality as reaching it, for CNC[C@H](O)c1ccc(O)c(O)c1
# output 0 (no)

# input Tell me whether inhibition is at least 20% here: CCc1ccc(OCc2ccccc2C(=O)Nc2ccc3nc(C)cc(N)c3c2)cc1
# output 1 (yes)

# input Evaluate Cc1c(F)cccc1NC(=O)Nc1ccc(Cl)c(S(=O)(=O)[C@H]2CCCNC2)c1O : inhibition at minimum 20%?
# output 0 (no)

# input Could you please find out whether CN1CCC(C(=O)c2cccc(NC(=O)c3c(F)cc(F)cc3F)n2)CC1 has inhibition that meets 20% or exceeds it?
# output 1 (yes)
